- Tested on: Dd2
- Protocol Summary: qHTS profiling for inhibitors of Plasmodium falciparum proliferation (AID 504749); also: nearly all actives have a fitted effect of over 60% in size
- Recorded Conditions: P. falciparum in erythrocytes, SYBR Green DNA, 72 h; series mostly up to 28.7 µM
Results filed as inconclusive are left out. Active and inactive are the calls of the source. Calls follow the shape of the dose curve; as a rule, active = well fitted inhibition curve with a large enough effect; inconclusive = small, poorly fitted or top-dose-only effect; inactive = flat fitted curve, though single readings scatter.
Can you answer with just one of these options? 1 = active, -1 = inactive

Worked set:
NCCCC(O)(P(=O)(O)O)P(=O)(O)O: -1
COc1cc([C@@H]2c3cc4c(cc3[C@H](O)[C@H]3COC(=O)[C@H]23)OCO4)cc(OC)c1OC: 1

What call does the record list for COc1cc(NS(=O)(=O)c2ccc(N)cc2)nc(OC)n1 ?
-1

# lookup: test call for COc1ccc(-c2ccc3cc(C(=O)O)ccc3c2)cc1C12CC3CC(CC(C3)C1)C2
-1

What did this assay record as the result for CN1CCCC(n2nc(Cc3ccc(Cl)cc3)c3ccccc3c2=O)CC1 (configuration not stated) ?
1

Query: recorded result category for CNNCc1ccc(C(=O)NC(C)C)cc1 in this test
-1

Give the logged outcome of this assay for the following compound: NC(=O)c1cccnc1
-1

Recorded test outcome, item O=c1oc2c(O)c(O)cc3c(=O)oc4c(O)c(O)cc1c4c23
1

Given COc1cc(NCc2ccc3nc(N)nc(N)c3c2C)cc(OC)c1OC , state the outcome it received in this test.
1

For CC1=CC(=O)c2ccccc2C1=O , what call appears in the results of this test?
-1

Please share the test call associated with O=NN(CCCl)C(=O)NC1CCCCC1 .
-1

Hi team, can someone confirm the assay call for COc1cnc(NS(=O)(=O)c2ccc(N)cc2)nc1 ?
-1
